Assign pIC50 to each entry below.
Sequence of the target: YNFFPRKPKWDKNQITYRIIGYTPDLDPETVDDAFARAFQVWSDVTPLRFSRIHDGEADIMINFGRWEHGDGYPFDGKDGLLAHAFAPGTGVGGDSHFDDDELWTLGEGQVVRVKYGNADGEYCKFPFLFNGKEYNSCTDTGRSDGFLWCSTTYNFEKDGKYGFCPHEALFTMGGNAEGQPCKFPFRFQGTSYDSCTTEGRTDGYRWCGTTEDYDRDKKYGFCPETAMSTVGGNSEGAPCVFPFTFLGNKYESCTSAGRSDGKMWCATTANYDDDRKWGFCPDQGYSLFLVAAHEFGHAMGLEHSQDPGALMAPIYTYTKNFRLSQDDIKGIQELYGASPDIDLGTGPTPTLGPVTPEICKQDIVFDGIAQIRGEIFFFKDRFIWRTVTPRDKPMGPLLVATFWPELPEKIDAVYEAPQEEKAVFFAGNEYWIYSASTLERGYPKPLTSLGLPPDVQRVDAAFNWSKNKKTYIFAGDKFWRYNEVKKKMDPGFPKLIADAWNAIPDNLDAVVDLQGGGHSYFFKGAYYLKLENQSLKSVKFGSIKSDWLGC
One number for each entry, as −log10 of the molar value.

Consider the following illustrative entries.
Q) Please look up its pIC50: C=CC[C@H](C(=O)NO)[C@@H](CC(C)C)C(=O)N[C@H](C(=O)NCCOCCOC)C(C)(C)C
A) 8.15

Q) Sample C=CC[C@H](C(=O)NO)[C@@H](CC(C)C)C(=O)N[C@H](C(=O)NC)C(C)(C)C [Comparator 2, reference compound] — what was its pIC50?
A) 7.82

Q) Request the reported pIC50 associated with CNC(=O)[C@@H](NC(=O)[C@H](CC(C)C)C(CSc1cccs1)C(=O)NO)C(C)(C)C (stereo partly shown) [Comparator 3, reference compound]
A) 7.70

***
Q) State the recorded pIC50 for this entry: COCCOCCOCCNC(=O)[C@@H](NC(=O)[C@H](CC(C)C)[C@H](CSc1cccs1)C(=O)NO)C(C)(C)C
A) 8.05
